- System: SARS-CoV
- method-summary: microbe, parasite or virus in culture
- Format: cell-based, SARS-CoV Urbani strain
- recorded-conditions: Severe acute respiratory syndrome coronavirus, Vero C1008
Listing: EC50 of selected molecules

Cc1ccc(N)cc1C(=O)NC(C)(C)c1cccc2ccccc12 = > 50 µM
Cc1ccc([N+](=O)[O-])cc1C(=O)N[C@H](C)c1cccc2ccccc12 = > 50 µM

Name the recorded EC50 of the item Cc1cccc(C(=O)N[C@H](C)c2ccc3ccccc3c2)c1 in your answer.
> 50 µM

Value source: patent US20110269834A1
